Recorded measurements of MRT, one per entry
experimental-protocol: Mean residence time in iv and po dosed rat
Assay type: ADME, organism-based
particulars: in vivo
Answer by giving the amount and then stating its unit.

Here's what some known entries look like.
CC(C)(Cc1ccc2ccccc2c1)NC[C@@H](O)COc1ccc(CCC(=O)O)cc1C#N: 19.2 min
CCOC(=O)CCc1ccc(OC[C@H](O)CNC(C)(C)Cc2ccc3ccccc3c2)c(C#N)c1.Cl: 42 min
CC(C)(Cc1ccc2ccccc2c1)NC[C@@H](O)COc1cccc(Cl)c1C#N: 150 min

Would you kindly look at the next entry?
Look up MRT: CC(C)(Cc1ccc2ccccc2c1)NC[C@@H](O)COc1ccc(CCC(=O)O)cc1
18 min

###

As an illustration, consider measured pIC50 for compounds on Cytochrome P450 2D6 (Homo sapiens).
Sequence (P10635 whole entry): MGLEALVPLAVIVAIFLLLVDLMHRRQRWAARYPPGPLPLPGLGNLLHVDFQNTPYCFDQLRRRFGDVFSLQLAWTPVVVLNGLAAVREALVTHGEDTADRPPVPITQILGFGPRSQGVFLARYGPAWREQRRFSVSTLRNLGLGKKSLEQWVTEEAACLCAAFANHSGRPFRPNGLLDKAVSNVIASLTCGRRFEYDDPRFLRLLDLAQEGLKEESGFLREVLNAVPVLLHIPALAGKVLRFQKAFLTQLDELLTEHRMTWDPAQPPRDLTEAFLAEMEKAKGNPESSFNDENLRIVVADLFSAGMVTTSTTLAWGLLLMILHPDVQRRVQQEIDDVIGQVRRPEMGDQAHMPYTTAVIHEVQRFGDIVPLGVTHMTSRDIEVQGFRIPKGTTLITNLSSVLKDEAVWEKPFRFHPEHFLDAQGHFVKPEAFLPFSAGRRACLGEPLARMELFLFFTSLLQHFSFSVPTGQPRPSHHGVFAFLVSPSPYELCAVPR
Please express pIC50 as -log10 of the molar concentration.

CC(C)(Cc1ccc2ccccc2c1)NC[C@@H](O)COc1cccc(Cl)c1C#N: 7.35
CC(C)(Cc1ccc2ccccc2c1)NC[C@@H](O)COc1ccccc1C#N: 7.00

Would you kindly look at the next entry?
Look up pIC50: CC(C)(Cc1ccc2ccccc2c1)NC[C@@H](O)COc1ccc(CCC(=O)O)cc1
4.28

###

Recorded measurements of MRT, one per entry
experimental-protocol: Mean residence time in iv and po dosed dog
Type: ADME, organism-based, Canis lupus familiaris
particulars: in vivo
API: value field is a number in h; no unit string.

CC(C)(Cc1ccc2ccccc2c1)NC[C@@H](O)COc1ccc(CCC(=O)O)cc1C#N: 0.85

Would you kindly look at the next entry?
Look up MRT: CCOC(=O)CCc1ccc(OC[C@H](O)CNC(C)(C)Cc2ccc3ccccc3c2)c(C#N)c1.Cl
1.37

###

test-target: Extracellular calcium-sensing receptor (Homo sapiens, UniProt P41180)
Sequence (P41180 whole entry): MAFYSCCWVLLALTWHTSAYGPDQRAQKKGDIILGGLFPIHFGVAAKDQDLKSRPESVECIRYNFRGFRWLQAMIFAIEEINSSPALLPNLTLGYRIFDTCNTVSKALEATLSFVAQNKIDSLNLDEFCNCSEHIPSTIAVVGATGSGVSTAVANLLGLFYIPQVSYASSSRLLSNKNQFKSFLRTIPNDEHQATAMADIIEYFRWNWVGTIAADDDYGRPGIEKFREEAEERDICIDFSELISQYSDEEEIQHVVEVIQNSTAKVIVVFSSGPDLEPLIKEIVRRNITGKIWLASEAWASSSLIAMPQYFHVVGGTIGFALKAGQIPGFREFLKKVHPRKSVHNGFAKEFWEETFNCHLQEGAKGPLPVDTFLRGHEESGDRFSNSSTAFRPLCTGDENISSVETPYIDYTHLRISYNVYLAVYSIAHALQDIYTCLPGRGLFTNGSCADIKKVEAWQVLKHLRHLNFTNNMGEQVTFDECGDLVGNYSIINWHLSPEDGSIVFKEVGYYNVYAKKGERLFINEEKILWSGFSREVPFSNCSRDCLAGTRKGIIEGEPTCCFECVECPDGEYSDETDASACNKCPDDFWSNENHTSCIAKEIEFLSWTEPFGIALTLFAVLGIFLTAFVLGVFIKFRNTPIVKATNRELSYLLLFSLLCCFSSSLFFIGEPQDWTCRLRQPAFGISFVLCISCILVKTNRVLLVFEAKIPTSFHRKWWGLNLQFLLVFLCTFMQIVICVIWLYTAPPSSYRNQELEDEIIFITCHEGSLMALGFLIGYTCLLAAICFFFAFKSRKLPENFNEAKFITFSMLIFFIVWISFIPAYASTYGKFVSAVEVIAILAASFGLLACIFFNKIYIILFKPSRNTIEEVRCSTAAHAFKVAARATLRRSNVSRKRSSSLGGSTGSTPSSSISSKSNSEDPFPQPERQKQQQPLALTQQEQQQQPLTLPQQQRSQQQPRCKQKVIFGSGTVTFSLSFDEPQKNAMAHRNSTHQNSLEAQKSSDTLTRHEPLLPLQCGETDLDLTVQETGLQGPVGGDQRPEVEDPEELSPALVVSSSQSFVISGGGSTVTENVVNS
experimental-protocol: Displacement of [3H](2-(2-hydroxyphenyl)-6-methyl-5-(2-methylpropyl)-3-(2-phenylethyl)-4(3H)-pyrimidinone) from human calcium receptor expressed in human HEK293 4.0-7 cells by liquid scintillation counting
Assay type: cell-based
Recorded measurements of IC50, one per entry
API: value field is a number in nM; no unit string.

What reported IC50 corresponds to CCOC(=O)CCc1ccc(OC[C@H](O)CNC(C)(C)Cc2ccc3ccccc3c2)c(C#N)c1.Cl on Extracellular calcium-sensing receptor (Homo sapiens, UniProt P41180)?
3

Can you handle CC(C)(Cc1ccc2ccccc2c1)NC[C@@H](O)COc1ccc(CCC(=O)O)cc1C#N next?
22

Can you handle COc1ccc(CC(C)(C)NC[C@H](O)COc2cccc3[nH]c(=O)[nH]c23)cc1 next?
31800

Can you handle CC(C)(Cc1ccc2ccccc2c1)NC[C@@H](O)COc1ccc(CCC(=O)O)cc1 next?
4800

Can you handle CC(C)(Cc1ccc2ccccc2c1)NC[C@@H](O)COc1cccc(Cl)c1C#N next?
3

Can you handle CC(C)(Cc1ccc2ccccc2c1)NC[C@@H](O)COc1ccccc1C#N next?
3
